Test Name: growth inhibition of WT strain, primary screen, mitochondrial fusion inhibitor project, WT and mutant strains, chemical genetic (AID 1362)
Test Parameters: mitochondrial fusion phenotypic screen, WT strain, growth inhibition; at 10 µM; stronger effect = higher value
The whole screen tested about 190,000 compounds, of which about 4,000 (2.1%) were called active. The entries come from a sample that favours actives as a whole.
Measure Name: inhibition (%)
Express it in %; write the number only.

Illustrative cases are given below, each with its answer.
>>> assay_value("CCCOC(=O)C1C2c3ccccc3C(c3ccccc32)C1C(=O)O (stereo unspecified)")
-5.35
>>> assay_value("COc1ccccc1N=Nc1c(O)[nH]c(=S)[nH]c1=O")
4.7
>>> assay_value("CCOC(=O)C1(CCc2ccccc2)CCN(Cc2ccco2)CC1")
12.8

Field request: inhibition | item: CN1CCN(C(=S)SCC(=O)Nc2ccc(Cl)cc2C(=O)c2ccccc2)CC1 7.01

O=C(OCCN1CCOCC1)C1(c2ccccc2)CCCC1 , same question. 8.37

COP(=O)(OC)C(NC(=O)c1ccc(C)cc1)C(Cl)(Cl)Cl (stereo unspecified) , same question. 3.22

----------
Test Name: growth inhibition of WT strain, primary screen, mitochondrial fusion inhibitor project, WT and mutant strains, chemical genetic (AID 1362)
Test Parameters: mitochondrial fusion phenotypic screen, WT strain, growth inhibition; at 10 µM
The whole screen tested about 190,000 compounds, of which about 4,000 (2.1%) were called active. No stated cut-off is given here; in the data, active means inhibition above about 58%; inactive means the rest, inconclusive results apart; tested in S. cerevisiae. For the sample, actives were picked, then their nearest neighbours and some compounds at random.
Would you mind answering with one of these outcomes? True (active), False (inactive)

>>> assigned_label("O=C(COC(=O)c1ccccc1)Nc1ccc(Cl)cc1C(=O)c1ccccc1")
"False"
>>> assigned_label("CC(C(=O)Nc1ccc(Cl)cc1Cl)N1CC=C(c2ccccc2)CC1 (stereo not drawn)")
"True"

Please turn your attention to the following entry.
Dear colleague, could you share the recorded outcome for Cc1cc(C=C2C(=O)NC(=O)NC2=O)c(C)n1-c1ccncc1 when you have a moment? False

----------
Some compounds, each annotated with its measured inhibition.
Test Name: growth inhibition of WT strain, primary screen, mitochondrial fusion inhibitor project, WT and mutant strains, chemical genetic (AID 1362)
Test Parameters: mitochondrial fusion phenotypic screen, mutant strain inhibition; at 10 µM
Hit rate of the full screen: of about 190,000 compounds, about 4,000 (2.1%) were called active. Many of the other results were omitted from the sample, so actives are more common in it than they were.
Express it in %; write the number only.

Illustrative cases are given below, each with its answer.
>>> assay_value("Cc1cc(C=C2C(=O)NC(=O)NC2=O)c(C)n1-c1ccncc1")
-6.83
>>> assay_value("CC(C(=O)Nc1ccc(Cl)cc1Cl)N1CC=C(c2ccccc2)CC1 (centres undefined)")
1.22
>>> assay_value("CN1CCN(C(=S)SCC(=O)Nc2ccc(Cl)cc2C(=O)c2ccccc2)CC1")
6.59

Let us examine a further case.
Field request: inhibition | item: CCOC(=O)C1(CCc2ccccc2)CCN(Cc2ccco2)CC1 4.98
